tested on: NCI-H520; assay: In vitro anti-tumor activity evaluation test (CCK-8), NCI-H520; assay type: cell-based, human; conditions: Homo sapiens; NCI-H520; 72 h; read-out: IC50 against different tumor cell lines
pIC50: −log10 of the molar value.
Readout Label: pIC50

1) C=C[C@]1(C)CC[C@@H](C(=C)CN2CCC(COC(=O)CCCC(=O)OCCOc3no[n+]([O-])c3S(=O)(=O)c3ccccc3)CC2)C[C@H]1C(=C)CCl: 6.07
2) C=C[C@]1(C)CC[C@@H](C(=C)CN2CCCC(COC(=O)CCCC(=O)OCC#CCOc3no[n+]([O-])c3S(=O)(=O)c3ccccc3)C2)C[C@H]1C(=C)CCl (stereo partly drawn): 5.93
3) C=C[C@]1(C)CC[C@@H](C(=C)CN2CC[C@H](OC(=O)CCC(=O)OCC#CCOc3no[n+]([O-])c3S(=O)(=O)c3ccccc3)C2)C[C@H]1C(=C)CCl: 5.99

---

The entries below come with measured inhibition at 1 µM values attached.
test system: U87MG; assay: In vitro anti-tumor activity evaluation test (CCK-8), U87MG; format: cell-based, human; details: Homo sapiens, U-87 MG; U87MG; 1 μM; 72 h; read-out: Inhibitory rates against tumor cell lines
Hi! Could you send only the number? It should be in %, unit omitted.

1) C=C[C@]1(C)CC[C@@H](C(=C)CN(CCOC(=O)CCCC(=O)OCCOc2no[n+]([O-])c2S(=O)(=O)c2ccccc2)C(C)C)C[C@H]1C(=C)CCl: 54.3

Supply inhibition at 1 µM value. Item: C=C[C@]1(C)CC[C@@H](C(=C)CN2CCC(COC(=O)CCCC(=O)OCCOc3no[n+]([O-])c3S(=O)(=O)c3ccccc3)CC2)C[C@H]1C(=C)CCl 54.8

Supply inhibition at 1 µM value. Item: C=C[C@]1(C)CC[C@@H](C(=C)CN2CCN(CCOC(=O)CCC(=O)OCC#CCOc3no[n+]([O-])c3S(=O)(=O)c3ccccc3)CC2)C[C@H]1C(=C)CCl 33.4

Supply inhibition at 1 µM value. Item: C=C[C@]1(C)CC[C@@H](C(=C)CN2CCC(COC(=O)CCCC(=O)OCC#CCOc3no[n+]([O-])c3S(=O)(=O)c3ccccc3)CC2)C[C@H]1C(=C)CCl 52.2

Supply inhibition at 1 µM value. Item: C=C[C@]1(C)CC[C@@H](C(=C)CN(CCOC(=O)CCC(=O)OCCOc2no[n+]([O-])c2S(=O)(=O)c2ccccc2)C(C)C)C[C@H]1C(=C)CCl 47.1

Supply inhibition at 1 µM value. Item: C=C[C@]1(C)CC[C@@H](C(=C)CN2CCN(CCOC(=O)CCCC(=O)OCCOc3no[n+]([O-])c3S(=O)(=O)c3ccccc3)CC2)C[C@H]1C(=C)CCl 52.4

Supply inhibition at 1 µM value. Item: C=C[C@]1(C)CC[C@@H](C(=C)CN(C)CCOC(=O)CCC(=O)OCCOc2no[n+]([O-])c2S(=O)(=O)c2ccccc2)C[C@H]1C(=C)CCl 39.5

---

test system: U87MG; assay: In vitro anti-tumor activity evaluation test (CCK-8), U87MG; assay type: cell-based, human; settings: Homo sapiens, U-87 MG; U87MG; 1 μM; 72 h; read-out: Inhibitory rates against tumor cell lines
The entries below come with measured inhibition at 1 µM values attached.
Hi! Could you send only the number? It should be in %, unit omitted.

Please review the following examples before continuing.
1) C=C[C@]1(C)CC[C@@H](C(=C)CN2CCN(CCOC(=O)CCCC(=O)OCC#CCOc3no[n+]([O-])c3S(=O)(=O)c3ccccc3)CC2)C[C@H]1C(=C)CCl: 50.3
2) C=C[C@]1(C)CC[C@@H](C(=C)CN(C)CCOC(=O)CCCC(=O)OCCOc2no[n+]([O-])c2S(=O)(=O)c2ccccc2)C[C@H]1C(=C)CCl: 56
3) C=C[C@]1(C)CC[C@@H](C(=C)CN2CC[C@H](OC(=O)CCC(=O)OCCOc3no[n+]([O-])c3S(=O)(=O)c3ccccc3)C2)C[C@H]1C(=C)CCl: 51.3
4) C=C[C@]1(C)CC[C@@H](C(=C)CN2CCCC(COC(=O)CCC(=O)OCCOc3no[n+]([O-])c3S(=O)(=O)c3ccccc3)C2)C[C@H]1C(=C)CCl (some centres unmarked): 51

Lab note: next compound to report on.
Supply inhibition at 1 µM value. Item: C=C[C@]1(C)CC[C@@H](C(=C)CN2CCCC(COC(=O)CCC(=O)OCC#CCOc3no[n+]([O-])c3S(=O)(=O)c3ccccc3)C2)C[C@H]1C(=C)CCl (some centres unmarked) 41.9

---

assay: In vitro NO release test (incubation with L-cysteine, OD at 550 nm); conditions: 60 min; 100 μM solution with cysteine solution, 37° C.
Readout Label: NO-release concentrations (µM)
Hi! Could you send only the number? It should be in µM, unit omitted.

Please review the following examples before continuing.
1. C=C[C@]1(C)CC[C@@H](C(=C)CN2CC[C@H](OC(=O)CCCC(=O)OCCOc3no[n+]([O-])c3S(=O)(=O)c3ccccc3)C2)C[C@H]1C(=C)CCl [Example 10]: 18.15
2. C=C[C@]1(C)CC[C@@H](C(=C)CN2CCN(CCOC(=O)CCC(=O)OCC#CCOc3no[n+]([O-])c3S(=O)(=O)c3ccccc3)CC2)C[C@H]1C(=C)CCl [Example 23]: 8.44
3. C=C[C@]1(C)CC[C@@H](C(=C)CN2CCCC(COC(=O)CCC(=O)OCCOc3no[n+]([O-])c3S(=O)(=O)c3ccccc3)C2)C[C@H]1C(=C)CCl (stereo partly drawn) [Example 17]: 12.43
4. C=C[C@]1(C)CC[C@@H](C(=C)CN2CC[C@H](OC(=O)CCC(=O)OCC#CCOc3no[n+]([O-])c3S(=O)(=O)c3ccccc3)C2)C[C@H]1C(=C)CCl [Example 11]: 24.58

Supply NO-release concentrations value. Item: C=C[C@]1(C)CC[C@@H](C(=C)CN2CCCC(COC(=O)CCC(=O)OCC#CCOc3no[n+]([O-])c3S(=O)(=O)c3ccccc3)C2)C[C@H]1C(=C)CCl (stereo partly drawn) [Example 19] 34.60

Supply NO-release concentrations value. Item: C=C[C@]1(C)CC[C@@H](C(=C)CN2CCCC(COC(=O)CCCC(=O)OCC#CCOc3no[n+]([O-])c3S(=O)(=O)c3ccccc3)C2)C[C@H]1C(=C)CCl (stereo partly drawn) [Example 20] 39.29

Supply NO-release concentrations value. Item: C=C[C@]1(C)CC[C@@H](C(=C)CN(C)CCOC(=O)CCCC(=O)OCCOc2no[n+]([O-])c2S(=O)(=O)c2ccccc2)C[C@H]1C(=C)CCl [Example 2] 6.74

Supply NO-release concentrations value. Item: C=C[C@]1(C)CC[C@@H](C(=C)CN(C)CCOC(=O)CCCC(=O)OCC#CCOc2no[n+]([O-])c2S(=O)(=O)c2ccccc2)C[C@H]1C(=C)CCl [Example 4] 42.31

Supply NO-release concentrations value. Item: C=C[C@]1(C)CC[C@@H](C(=C)CN(CCOC(=O)CCCC(=O)OCC#CCOc2no[n+]([O-])c2S(=O)(=O)c2ccccc2)C(C)C)C[C@H]1C(=C)CCl [Example 8] 29.50

This collection of values is drawn from patent US12624012B2.
